Below, each of the variants is paired with its reported self-cleavage kobs at 10000 uM GlcN6P value.
B1: glmS ribozyme (parent)
chain: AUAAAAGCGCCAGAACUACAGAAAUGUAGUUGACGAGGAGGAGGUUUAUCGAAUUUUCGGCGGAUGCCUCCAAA

# Variants of: B1
# experiment summary: self-cleavage kobs at 10000 uM GlcN6P; higher = faster cleavage; RNA array
# settings: with glucosamine-6-phosphate
This sample holds only a part of the variants without activity.

seq text	unit label	inequality sign	self-cleavage kobs at 10000 uM GlcN6P
AUAAAAGCGCCGGAACUACAGAAAUGUAGUUGACGAGGAGGAGCUUUAUCGAAUUUUCGGCGGAUGGCUCCAAA [A12G G44C C67G]	s⁻¹	=	0.000225
AUAAAAGCGCCAGAACUACAGAAAUGUAGUUAACGAGGAGGAGGUUUAUCGGAUUUUCGGCGGAUGCCUCCAAA [G32A A52G]	s⁻¹	=	0.000131
AUAAAAGCGCCAGAACUACAGAAAUGUAGUUGACGAGGAGGAGGUUUAUCGAAUUUUCGGCGGAUGCUUAUAAA [C68U C70A C71U]	s⁻¹	<	1e-05
AUAAAAGCGCCAGAACUACAGAAAUGUAGUUGACGAGGAGGAGGUUAAUCGAAUUUUCGGCGGCUGCCUCCAAA [U47A A64C]	s⁻¹	=	0.000109
AUAAAACCGCCAGAACUACAGAAAUGUAGUUGACGAGGAGGAGCUUUAUCGAAUUUUCGGCGGUUGCCUCCAAA [G7C G44C A64U]	s⁻¹	<	1e-05
AUAAAAGCGCCAGAACUACAGAAAUGUAGUGGACGAGGAGGAGGUUAAUCGAAUUUUCGGCGGAUGCCUCCAAA [U31G U47A]	s⁻¹	=	0.00821
AUAAAAGCGCCAGAACUACAGAAAUGUAGUUGACGAGGAGGAGGAUUCUCGAAUUUUUGGCGGAUGCCUCCAAA [U45A A48C C58U]	s⁻¹	<	1e-05
AUAAAAGCGCCAGAACUACAGAAAUGUAGUUGACUAGGAGGAGGUUUAUCGACUUUUCGGCGGAUGCCUCCAAA [G35U A53C]	s⁻¹	<	1e-05
AUAAAAGCGCCAGAACUACAGAAAUGUAGUUGAUGAGGAGGAGGUUUAUCGAAUUUCUGGCGGAUGCCUCCAAA [C34U U57C C58U]	s⁻¹	<	1e-05
AUAAAGGCGCCAGAACUACAGAAAUGUAGUUGACGAGGAGGAGGUUUAUCGAAAUUUCGGCGGAUGCCUCCAAA [A6G U54A]	s⁻¹	=	0.000476
AUAAAAGCGCCAGAACUACAGAAAUGUAGUUGACGACGAGGAGGUUUAUUGAAUUUUCGGCGGAUUCCUCCAAA [G37C C50U G66U]	s⁻¹	<	1e-05
AUAAAAGCGCCAAAACUACAGAAAUGUAGUUGACGAGGAAGAGGUUUAUCGAAUUUUCGGCGGAUGCCUCCAAA [G13A G40A]	s⁻¹	=	0.00011
AUAAAAGCGCCAGAAGUACAGAAAUGUAGUUGACGAGGAGGAGGUUUAUCGAAUUUCCGGCGGAUGCCUCCAAA [C16G U57C]	s⁻¹	=	3.37e-05
AUAAAAGCCCGAGAACUACAGAAAUGUAGUUGACGAGGAGGAGGUUUAUCGAAUUUUCGGCGGAUGCCUCCAAA [G9C C11G]	s⁻¹	<	1e-05
AUAAAAGUGCCAGCACUACAGAAAUGUAGUUGACGAGGAGGAGGUUUAUCGAAUUUUCGGCGGAUGCCUCCAAA [C8U A14C]	s⁻¹	<	1e-05
AUAAAACCGCCAGAACUACAGAAAUGUAGUUGACGAGGAGGAGGUUUAUCGAAUUUUCGGCGGAGGCCUCCAAA [G7C U65G]	s⁻¹	<	1e-05
AUAAAAGCGCCAGAGCUACAGAAAUGUAGUUAACGAGGAGGAGGUUUAUCGAAUUUUCGGCGGAUGCCUCGAAA [A15G G32A C71G]	s⁻¹	=	0.000201
AUAAAAGCGCCAGAACUACAGAAAUGUAGUUGACGAGGAGGCGGUUUAUCGAAUUUUCGGCUGAUGCCUCCAAA [A42C G62U]	s⁻¹	<	1e-05
AUAAAAGCGCCAGAACUACAGAAAUGUAGUUAACGAGGAGGAGGUUUAUCGCAUUUUCGGCGGAUGCCUCCAAA [G32A A52C]	s⁻¹	<	1e-05
AUAAAAGCGCCAGAACUACAGAAAUGUAGUUAACGAGGAGGAGGUUUAUCGAAUUUUCGUCGGAUGCCUCCAAA [G32A G60U]	s⁻¹	<	1e-05
AUAAAAGCGCCAGAACUACAGAAAUGUAGUUAACGAGGAGGAGGUUUAUCGAAUUUUCGGGGGAUGCCCCCAAA [G32A C61G U69C]	s⁻¹	=	3.49e-05
AUAAAUGCGCCAGAACUACAGAAAUGUAGUUGACGAGGAGGAGGUUUAUCGUAUUUUCGGCGGAUGCCUCCAAA [A6U A52U]	s⁻¹	<	1e-05
